# System: P. falciparum 3D7 parasites
# assayText: P. falciparum growth inhibition assay, 2-cycle (120 h treatment), delayed-death screen and dose-response
# Format: cell-based, Plasmodium falciparum
# studyConditions: Plasmodium falciparum, 3D7; library screen at 2 μg/mL, 120 h, % growth, replicate 2; read-out: Pf_120h_%Growth_Rep2
assayMetric: activity at 2 µg/mL (%)
Number in %, nothing else.

[[record]]
compound = "CC[C@H](C)[C@H]1C(=O)O[C@H](C(C)C)C(=O)N(C)[C@@H](C(C)C)C(=O)O[C@H](C(C)C)C(=O)N(C)[C@@H](C(C)C)C(=O)O[C@H](C(C)C)C(=O)N1C"
assaymetric = "activity at 2 µg/mL"
valueunits = "%"
recordedresult = 9.66


Requested read-out: activity at 2 µg/mL. Entry: CCc1c(Cl)c(O)c(Cl)c(O)c1C(=O)O[C@H]1[C@H](O)[C@H](OC)[C@H](OC/C2=C\C=C\C[C@H](O)/C(C)=C/[C@H](CC)[C@@H](O[C@@H]3OC(C)(C)[C@@H](OC(=O)C(C)C)[C@H](O)[C@@H]3O)/C(C)=C/C(C)=C/C[C@@H]([C@@H](C)O)OC2=O)O[C@@H]1C [fidaxomicin, reference compound]
-3.62
